Hello, the source for this data is paper PMC10663500, in case you need it.

# system: T1, mouse programmed cell death protein 1 Fc fusion protein (mPD-1-Fc), mPD-1 C60S (aa 25-167) (Mus musculus, UniProt Q02242, stabilised)
# T1 construct: not cleaved; source: Expi293F, purified (Protein A, SEC; dimeric fraction); not shown: Fc (human), C-terminal, kept
# assay.method.text: SPR; Carterra LSA; Fab from the ammonium sulfate precipitate of the culture supernatant immobilised on a NiHC200M chip; hPD-1 (1-1024 nM) or mPD-1-Fc (4-1024 nM) as analyte, fourfold dilution series, no regeneration; HBS-EP pH 7.4, 25 °C; medians over the spots of a construct, KD = koff/kon
# measurement.setup: one partner purified
# kon listing for each entry below

| binder | kon (M⁻¹ s⁻¹) |
| --- | --- |
| toripalimab Fab L.T36Y (Fab, V domains shown, as the heavy chain of Sm3; light chain of Sm3 with this change; numbers count from the chain's first residue; source: Brevibacillus, culture supernatant (ammonium sulfate precipitate); not shown: 6xHis, C-terminal, kept; 6xHN, C-terminal, kept) VH: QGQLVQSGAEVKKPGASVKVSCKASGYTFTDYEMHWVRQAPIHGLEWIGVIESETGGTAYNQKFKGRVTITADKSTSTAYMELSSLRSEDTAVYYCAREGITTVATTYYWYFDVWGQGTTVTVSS VL: DVVMTQSPLSLPVTLGQPASISCRSSQSIVHSNGNYYLEWYLQKPGQSPQLLIYKVSNRFSGVPDRFSGSGSGTDFTLKISRVEAEDVGVYYCFQGSHVPLTFGQGTKLEIK | 46100 |
| toripalimab Fab L.S97A (Fab, V domains shown, as the heavy chain of Sm3; light chain of Sm3 with this change; numbers count from the chain's first residue; source: Brevibacillus, culture supernatant (ammonium sulfate precipitate); not shown: 6xHis, C-terminal, kept; 6xHN, C-terminal, kept) VH: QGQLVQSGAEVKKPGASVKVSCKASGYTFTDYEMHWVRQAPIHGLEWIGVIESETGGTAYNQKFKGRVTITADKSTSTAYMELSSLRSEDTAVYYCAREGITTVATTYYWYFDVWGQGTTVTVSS VL: DVVMTQSPLSLPVTLGQPASISCRSSQSIVHSNGNTYLEWYLQKPGQSPQLLIYKVSNRFSGVPDRFSGSGSGTDFTLKISRVEAEDVGVYYCFQGAHVPLTFGQGTKLEIK | 40400 |
| toripalimab Fab L.L101V (Fab, V domains shown, as the heavy chain of Sm3; light chain of Sm3 with this change; numbers count from the chain's first residue; source: Brevibacillus, culture supernatant (ammonium sulfate precipitate); not shown: 6xHis, C-terminal, kept; 6xHN, C-terminal, kept) VH: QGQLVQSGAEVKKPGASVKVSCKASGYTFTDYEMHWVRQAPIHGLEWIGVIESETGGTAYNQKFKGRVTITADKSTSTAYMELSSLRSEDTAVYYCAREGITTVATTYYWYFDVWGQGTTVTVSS VL: DVVMTQSPLSLPVTLGQPASISCRSSQSIVHSNGNTYLEWYLQKPGQSPQLLIYKVSNRFSGVPDRFSGSGSGTDFTLKISRVEAEDVGVYYCFQGSHVPVTFGQGTKLEIK | 16100 |
| toripalimab Fab L.S28A (Fab, V domains shown, as the heavy chain of Sm3; light chain of Sm3 with this change; numbers count from the chain's first residue; source: Brevibacillus, culture supernatant (ammonium sulfate precipitate); not shown: 6xHis, C-terminal, kept; 6xHN, C-terminal, kept) VH: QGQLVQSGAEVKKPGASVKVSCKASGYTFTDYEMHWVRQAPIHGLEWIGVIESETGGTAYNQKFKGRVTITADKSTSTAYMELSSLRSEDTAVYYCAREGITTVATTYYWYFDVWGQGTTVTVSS VL: DVVMTQSPLSLPVTLGQPASISCRSSQAIVHSNGNTYLEWYLQKPGQSPQLLIYKVSNRFSGVPDRFSGSGSGTDFTLKISRVEAEDVGVYYCFQGSHVPLTFGQGTKLEIK | 31400 |
| toripalimab Fab H.I51A (Fab, V domains shown, heavy chain of Sm3 with this change; numbers count from the chain's first residue; as the light chain of Sm3; source: Brevibacillus, culture supernatant (ammonium sulfate precipitate); not shown: 6xHis, C-terminal, kept; 6xHN, C-terminal, kept) VH: QGQLVQSGAEVKKPGASVKVSCKASGYTFTDYEMHWVRQAPIHGLEWIGVAESETGGTAYNQKFKGRVTITADKSTSTAYMELSSLRSEDTAVYYCAREGITTVATTYYWYFDVWGQGTTVTVSS VL: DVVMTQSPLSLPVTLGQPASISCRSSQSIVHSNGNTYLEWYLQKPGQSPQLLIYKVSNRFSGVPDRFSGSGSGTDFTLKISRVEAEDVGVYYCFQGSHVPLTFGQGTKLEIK | 63500 |
